System: OVCAR-5
Assay: NCI tumour cell line growth inhibition, 48 h
Calls of active or inactive are those of the source. Cut-off read from the data, not from the text of the source: active = GI50 up to about 1.1 µM and inactive = higher.

{"COMPOUND": "O=C(NO)c1ccc(OCc2cccc(Cl)c2)cc1", "GI50": "6.15 µM (inactive)"}
{"COMPOUND": "CCOC(=O)c1cc(=O)c2ccnc3c2n1CCS3", "GI50": "> 100 µM (inactive)"}
{"COMPOUND": "O=C1Nc2ccccc2N/C1=C\\C(=O)c1ccccc1O", "GI50": "> 100 µM (inactive)"}
{"COMPOUND": "COC(=O)C1(NC(=O)C(CC(=O)OCc2ccccc2)NC(=O)OCc2ccccc2)CCCCCCC1 (stereo not given)", "GI50": "62.7 µM (inactive)"}
{"COMPOUND": "CC(C)(C)C(=O)N1CCN(C=O)C1=S", "GI50": "> 100 µM (inactive)"}
{"COMPOUND": "Cc1nc(O)nc2nc3ccc(Cl)cc3c(NC(C)(CO)CO)c12", "GI50": "> 100 µM (inactive)"}
{"COMPOUND": "CC(C)C(NC(=O)C(Cc1ccccc1)NC(=O)[C@H]1CCC[C@H]1NC(=O)C(Cc1ccc(OC(C)(C)C)cc1)NC(=O)OC(C)(C)C)C(N)=O (stereo not given in full)", "GI50": "18.8 µM (inactive)"}
{"COMPOUND": "CCOC(=O)/C=C(\\N=P(c1ccccc1)(c1ccccc1)c1ccccc1)C(F)(F)C(F)(F)C(F)(F)C(F)(F)C(F)(F)F", "GI50": "> 100 µM (inactive)"}
{"COMPOUND": "CC1=C(C(=O)OCCO[N+](=O)[O-])C(c2ccccc2C(F)(F)F)C(C(=O)OC(C)C)=C(C)N1 (stereo not given)", "GI50": "14.8 µM (inactive)"}
{"COMPOUND": "CC[P+](C#Cc1ccccc1)(c1ccccc1)c1ccccc1", "GI50": "4.06 µM (inactive)"}
